- SYSTEM: T1, GST-Crk SH2 domain (human, UniProt P46108 13-118)
- T1 construct: SH2 domain of Crk; source: E. coli BL21, purified (glutathione sepharose, NAP-10)
- T1 sequence (P46108 13-118): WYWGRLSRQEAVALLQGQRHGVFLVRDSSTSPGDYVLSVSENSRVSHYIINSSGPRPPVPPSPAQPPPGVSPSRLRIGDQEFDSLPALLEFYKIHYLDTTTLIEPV
- ASSAY PROTOCOL: fluorescence polarisation; Rhodamine B-labelled peptide in solution with SH2 domain; Beacon 2000; as previously described [40]
- ASSAY SETUP: both partners purified
Non-standard residues stand in square brackets, D forms with d. No end group written: not given here. pY = N[C@@H](Cc1ccc(OP(=O)(O)O)cc1)C(=O)O
Catalogue of pKd readings, one per entry.
Please keep in mind that pKd is minus log10 of the molar concentration; only the number is needed.

Req: I am curious: what pKd value has been reported for AEDV[pY]DVPPPA (not fully specified (N-terminus); also: Rhodamine B label, site not given here, p130Cas (BCAR1) around Y362; source: synthetic peptide (FMOC chemistry), purified by LC/MS) [p130Cas (Y362) phosphopeptide AEDVpYDVPPPA, Rhodamine B-labelled] ?
Resp: 6.46

Req: I am curious: what pKd value has been reported for GVSE[pY]ELPEDP (not fully specified (N-terminus); also: Rhodamine B label, site not given here, FGFR1 around Y463; also called FGFR1 pY-463; source: synthetic peptide (FMOC chemistry), purified by LC/MS) [FGFR1 (Y463) phosphopeptide GVSEpYELPEDP, Rhodamine B-labelled] ?
Resp: 4.36

Req: I am curious: what pKd value has been reported for KEEG[pY]ELPYNP (not fully specified (N-terminus); also: Rhodamine B label, site not given here, p62DOK1 around Y398; source: synthetic peptide (FMOC chemistry), purified by LC/MS) [p62DOK1 (Y398) phosphopeptide KEEGpYELPYNP, Rhodamine B-labelled] ?
Resp: 4.63
